For each record, write down the corresponding pIC50.
Target: human recombinant MLK3 protein (Homo sapiens)
Sequence (Q16584 whole entry): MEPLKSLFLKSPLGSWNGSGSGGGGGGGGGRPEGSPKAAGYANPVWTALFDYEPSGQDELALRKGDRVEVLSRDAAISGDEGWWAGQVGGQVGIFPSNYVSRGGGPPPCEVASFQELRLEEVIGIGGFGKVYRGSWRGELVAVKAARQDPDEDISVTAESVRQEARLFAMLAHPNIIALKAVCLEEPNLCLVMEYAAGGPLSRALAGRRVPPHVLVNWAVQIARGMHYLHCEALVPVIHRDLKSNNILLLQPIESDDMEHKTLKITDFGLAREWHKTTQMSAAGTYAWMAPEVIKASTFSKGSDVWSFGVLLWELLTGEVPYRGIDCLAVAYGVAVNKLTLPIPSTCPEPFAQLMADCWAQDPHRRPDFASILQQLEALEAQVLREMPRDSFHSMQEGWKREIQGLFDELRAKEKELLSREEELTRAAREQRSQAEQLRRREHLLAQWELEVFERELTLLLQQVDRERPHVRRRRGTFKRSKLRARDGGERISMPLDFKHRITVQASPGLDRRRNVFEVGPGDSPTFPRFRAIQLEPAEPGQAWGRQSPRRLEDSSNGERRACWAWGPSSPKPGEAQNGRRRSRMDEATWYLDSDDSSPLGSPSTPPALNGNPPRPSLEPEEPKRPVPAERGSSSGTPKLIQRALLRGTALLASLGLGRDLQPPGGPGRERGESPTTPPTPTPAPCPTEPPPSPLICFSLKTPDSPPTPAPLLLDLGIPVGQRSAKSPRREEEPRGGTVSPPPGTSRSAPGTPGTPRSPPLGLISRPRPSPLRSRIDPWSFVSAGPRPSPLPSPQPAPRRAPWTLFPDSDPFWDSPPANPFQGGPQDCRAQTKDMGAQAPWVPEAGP
Assay: MLK3 kinase activity assay (Eurofins, gamma-33P-ATP, filtermat scintillation counting)
Details: human recombinant MLK3, 120 minutes at room temperature
Description: Compounds 1 to 119 synthesized in Example 1 according to the present disclosure were assayed for inhibitory activity against MLK3/LRRK2 enzymes and anticancer activity against HepG2/HS746T cancer cells, and the results are summarized in Table 1, below. Inhibitory activity against MLK3 and LRRK2 enzymes was evaluated in Eurofins. […] Values for the activity of MLK3 were expressed as % of the control. […] Values for the activity of LRRK2 were expressed as % of the control.
pIC50: −log10 of the molar value.

[ask] Give the reported value of pIC50 for this record: `CN(C)c1ncc(F)c(NC2CCN(S(C)(=O)=O)CC2)n1`
[reply] < 6.00

[ask] Give recorded pIC50. `CP(C)(=O)c1ccccc1Nc1nc(Nc2ccc3ncccc3c2)ncc1Cl`
[reply] 7.00 to 8.00

[ask] Specify reported pIC50 for the molecule shown: `CC(C)S(=O)(=O)c1ccccc1Nc1nc(Nc2cc(C(F)(F)F)cc(C(F)(F)F)c2)ncc1Cl`
[reply] 7.00 to 8.00

[ask] Indicate its recorded pIC50; the molecule in question is `CC1(C)CNCc2cc(Nc3ncc(Cl)c(Nc4ccccc4P(C)(C)=O)n3)ccc21`
[reply] 8.00 to 9.00

[ask] State its pIC50 for this molecule: `CC1(C)CCC(C)(C)c2cc(Nc3ncc(Cl)c(Nc4ccccc4P(C)(C)=O)n3)ccc21`
[reply] 6.00 to 7.00

[ask] Return pIC50 for the following molecule: `COc1cc(Cl)cc(-c2n[nH]c3ccc(Nc4ncc(Cl)c(Nc5ccccc5P(C)(C)=O)n4)cc23)c1`
[reply] 8.00 to 9.00

[ask] For the molecule `CP(C)(=O)c1ccccc1Nc1nc(Nc2ccc3[nH]nc(-c4ccc(Cl)c(C(F)(F)F)c4)c3c2)ncc1Cl` , give its reported pIC50.
[reply] 8.00 to 9.00

[ask] For the molecule `CP(C)(=O)c1ccccc1Nc1nc(Nc2ccc3ncsc3c2)ncc1Cl` , give its measured pIC50 value.
[reply] 8.00 to 9.00

[ask] Please look at this molecule and report its pIC50: `CC1(C)CN(C(=O)C(F)(F)F)Cc2cc(Nc3ncc(Cl)c(Nc4ccccc4P(C)(C)=O)n3)ccc21`
[reply] 8.00 to 9.00

[ask] State its pIC50: `CS(=O)(=O)N1CCC(Nc2nc(Nc3ccnc4c(F)cccc34)ncc2F)CC1`
[reply] < 6.00

----------
Kindly state Cell viability (% of Con. 10 μM) HS746T for each of the entries shown.
tested on: HS746T cancer cells; assay: Anticancer activity, cell viability by CCK-8, HS746T; format: cell-based; conditions: 72 hours

[ask] For `CP(C)(=O)c1ccccc1Nc1nc(Nc2ccc3[nH]ncc3c2)ncc1Cl` , write its Cell viability (% of Con. 10 μM) HS746T.
[reply] 22 % of Con.

[ask] Give the value of Cell viability (% of Con. 10 μM) HS746T reported for the following: `CP(C)(=O)c1ccccc1Nc1nc(Nc2ccc3nc(S)sc3c2)ncc1Cl`
[reply] 26 % of Con.

[ask] Answer with the recorded Cell viability (% of Con. 10 μM) HS746T for the molecule listed here: `CP(C)(=O)c1ccccc1Nc1nc(Nc2ccc3c(c2)CNC3)ncc1Cl`
[reply] 0.5 % of Con.

[ask] Write down Cell viability (% of Con. 10 μM) HS746T measured for item `CCCn1cc(-c2n[nH]c3ccc(Nc4ncc(Cl)c(Nc5ccccc5P(C)(C)=O)n4)cc23)cn1`
[reply] 19 % of Con.

[ask] Recall and state the measured Cell viability (% of Con. 10 μM) HS746T for `COc1cc(Cl)cc(-c2n[nH]c3ccc(Nc4ncc(Cl)c(Nc5ccccc5P(C)(C)=O)n4)cc23)c1` .
[reply] 26 % of Con.

[ask] State its Cell viability (% of Con. 10 μM) HS746T for this molecule: `CC(=O)c1ccc(-c2n[nH]c3ccc(Nc4ncc(Cl)c(Nc5ccccc5P(C)(C)=O)n4)cc23)cc1`
[reply] 17 % of Con.

[ask] For the molecule `CC(C)(C)OC(=O)N1CC=C(c2n[nH]c3ccc(Nc4ncc(Cl)c(Nc5ccccc5P(C)(C)=O)n4)cc23)CC1` , give its measured Cell viability (% of Con. 10 μM) HS746T value.
[reply] 6 % of Con.

[ask] Identify measured Cell viability (% of Con. 10 μM) HS746T associated with `COc1ccc(-c2n[nH]c3ccc(Nc4ncc(Cl)c(Nc5ccccc5P(C)(C)=O)n4)cc23)cc1F`
[reply] 25 % of Con.

[ask] Complete the entry with Cell viability (% of Con. 10 μM) HS746T for CC1NCCc2ccc(Nc3ncc(Cl)c(Nc4ccccc4P(C)(C)=O)n3)cc21 (centres unmarked)
[reply] 2 % of Con.

[ask] Determine from records and report Cell viability (% of Con. 10 μM) HS746T for `CP(C)(=O)c1ccccc1Nc1nc(Nc2ccc3[nH]nc(-c4cccc([N+](=O)[O-])c4)c3c2)ncc1Cl`
[reply] 11 % of Con.

[ask] Indicate its recorded Cell viability (% of Con. 10 μM) HS746T; the molecule in question is CC1c2cc(Nc3ncc(Cl)c(Nc4ccccc4P(C)(C)=O)n3)ccc2CCN1C(=O)C(F)(F)F (centres unmarked)
[reply] 4 % of Con.

[ask] Look up and state reported Cell viability (% of Con. 10 μM) HS746T for `CC1(C)CN(C(=O)C(F)(F)F)Cc2cc(Nc3ncc(Cl)c(Nc4ccccc4P(C)(C)=O)n3)ccc21`
[reply] 2 % of Con.

[ask] Please supply the value of reported Cell viability (% of Con. 10 μM) HS746T for the item `CP(C)(=O)c1ccccc1Nc1nc(Nc2cccc3[nH]ccc23)ncc1Cl`
[reply] 64 % of Con.

[ask] Provide only the value of recorded Cell viability (% of Con. 10 μM) HS746T for `CP(C)(=O)c1ccccc1Nc1nc(Nc2ccc3[nH]nc(-c4ccc(C#N)cc4)c3c2)ncc1Cl`
[reply] 23 % of Con.
